Assay: Taft steric parameter Es of sterically hindering group
Format: physicochemical
Set-up: key: Taft steric parameter Es, referenced to H = 0 (more negative = bulkier)
Excerpt: Y is a monovalent organic group which sterically hinders leuco dye formation. The sterically hindering group is characterizedby a negative Es value greater than the absolute value of -1.5 and more preferably greater than the absolute value of -2.0. The Es value refers to the Taft steric parameter, referenced to H=O and defined as: […] where k refers to the rate constant for the acid hydrolysis of esters of the type X--CH2 COOR and 1.24 is the hydrolysis rate of formate. […]
This listing pairs compounds with measured Es Value for Sterically Hindering Group.
readout type: Es Value for Sterically Hindering Group

[
  {
    "compound": "CCCCCCCCCCCCC(Oc1ccc(C(C)(C)CC(C)(C)C)cc1C(C)(C)CC(C)(C)C)C(=O)NC1=NN(c2c(Cl)cc(Cl)cc2Cl)C(=O)C1n1cccn1 (stereo not drawn)",
    "readout type": "Es Value for Sterically Hindering Group",
    "recorded value": -2.6
  },
  {
    "compound": "CCCCCCCCCCCC(=O)Nc1ccc(Oc2ccc(C(C)(C)CC)cc2C(C)(C)CC)c(C(=O)NC2=NN(c3c(Cl)cc(Cl)cc3Cl)C(=O)C2n2cccn2)c1 (stereo not drawn)",
    "readout type": "Es Value for Sterically Hindering Group",
    "recorded value": -3.0
  },
  {
    "compound": "CCCCCCCCCCCCCCCCC(Oc1ccc(C(C)(C)CC)cc1C(C)(C)CC)C(=O)NC1=NN(c2c(Cl)cc(Cl)cc2Cl)C(=O)C1n1cccn1 (stereo not drawn)",
    "readout type": "Es Value for Sterically Hindering Group",
    "recorded value": -3.0
  },
  {
    "compound": "CCCCCCC(Oc1cc2c(cc1C(C)(C)CC(C)(C)C)OC(C)(C)CC2(C)C)C(=O)NC1=NN(c2c(Cl)cc(Cl)cc2Cl)C(=O)C1n1cccn1 (stereo not drawn)",
    "readout type": "Es Value for Sterically Hindering Group",
    "recorded value": -2.6
  },
  {
    "compound": "CCCCCCCCCCCCC(Oc1cc(C(C)(C)C)cc(C(C)(C)C)c1)C(=O)NC1=NN(c2c(Cl)cc(Cl)cc2Cl)C(=O)C1n1cccn1 (stereo not drawn)",
    "readout type": "Es Value for Sterically Hindering Group",
    "recorded value": -2.8
  },
  {
    "compound": "CCCCCCC(Oc1ccc(C(C)(C)CC(C)(C)C)cc1C(C)(C)CC(C)(C)C)C(=O)NC1=NN(c2c(Cl)cc(Cl)cc2Cl)C(=O)C1n1cccn1 (stereo not drawn)",
    "readout type": "Es Value for Sterically Hindering Group",
    "recorded value": -2.6
  },
  {
    "compound": "CCCCCCCCCCCCC(Oc1ccc(C(C)(C)CC)cc1C(C)(C)CC)C(=O)NC1=NN(c2c(Cl)cc(Cl)cc2Cl)C(=O)C1n1cccn1 (stereo not drawn)",
    "readout type": "Es Value for Sterically Hindering Group",
    "recorded value": -3.0
  },
  {
    "compound": "CCC(C)(C)c1ccc(Oc2ccc([N+](=O)[O-])cc2C(=O)NC2=NN(c3c(Cl)cc(Cl)cc3Cl)C(=O)C2n2cccn2)c(C(C)(C)CC)c1 (stereo not drawn)",
    "readout type": "Es Value for Sterically Hindering Group",
    "recorded value": -3.0
  },
  {
    "compound": "CCCCCCC(Oc1ccc(C(C)(C)CC)cc1C(C)(C)CC)C(=O)NC1=NN(c2c(Cl)cc(Cl)cc2Cl)C(=O)C1n1cccn1 (stereo not drawn)",
    "readout type": "Es Value for Sterically Hindering Group",
    "recorded value": -3.0
  },
  {
    "compound": "CCCCCCCCCCCCC(Oc1ccc(C)cc1C(C)(C)CC(C)(C)C)C(=O)NC1=NN(c2c(Cl)cc(Cl)cc2Cl)C(=O)C1n1cccn1 (stereo not drawn)",
    "readout type": "Es Value for Sterically Hindering Group",
    "recorded value": -2.6
  },
  {
    "compound": "CCC(C)(C)c1ccc(OCC(=O)Nc2ccc(Oc3ccc(C(C)(C)CC)cc3C(C)(C)CC)c(C(=O)NC3=NN(c4c(Cl)cc(Cl)cc4Cl)C(=O)C3n3cccn3)c2)c(C(C)(C)CC)c1 (stereo not drawn)",
    "readout type": "Es Value for Sterically Hindering Group",
    "recorded value": -3.0
  },
  {
    "compound": "CCCCCCCCC(Oc1ccc(C(C)(C)CC)cc1C(C)(C)CC)C(=O)NC1=NN(c2c(Cl)cc(Cl)cc2Cl)C(=O)C1n1cccn1 (stereo not drawn)",
    "readout type": "Es Value for Sterically Hindering Group",
    "recorded value": -3.0
  }
]

Hey, just so you know, these numbers are from patent US5610003A.
